experimental-system: PfOPRT (Plasmodium falciparum, UniProt Q8N0R1)
Sequence (Q8N0R1 1-281): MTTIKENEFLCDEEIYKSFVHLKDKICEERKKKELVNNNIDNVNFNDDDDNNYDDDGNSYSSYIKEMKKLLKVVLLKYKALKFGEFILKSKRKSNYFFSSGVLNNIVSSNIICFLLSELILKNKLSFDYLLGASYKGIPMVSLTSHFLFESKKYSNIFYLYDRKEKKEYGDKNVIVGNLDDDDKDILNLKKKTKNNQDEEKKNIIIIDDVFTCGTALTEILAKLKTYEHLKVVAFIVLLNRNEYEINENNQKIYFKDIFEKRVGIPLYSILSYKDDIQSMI
measured-property: pKi
Reminder that pKi means the negative base-10 logarithm of the concentration expressed in mol/L.

IN: What pKi value was documented for this molecule, O=S(=O)(O)O [sulfate] ?
OUT: 2.51

###

experimental-system: HsOPRT (Homo sapiens, UniProt P11172)
Sequence (P11172 2-214 limits assumed): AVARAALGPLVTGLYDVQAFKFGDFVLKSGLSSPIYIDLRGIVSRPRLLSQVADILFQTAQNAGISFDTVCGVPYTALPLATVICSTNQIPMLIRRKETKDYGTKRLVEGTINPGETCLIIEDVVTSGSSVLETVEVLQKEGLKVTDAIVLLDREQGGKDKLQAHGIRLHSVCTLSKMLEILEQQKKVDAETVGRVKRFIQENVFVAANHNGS
measured-property: pKi
Reminder that pKi means the negative base-10 logarithm of the concentration expressed in mol/L.

IN: What pKi value was documented for this molecule, O=S(=O)(O)O [sulfate] ?
OUT: 1.75
